Target: hOT7T175 (Homo sapiens, UniProt Q969F8, L364H)
Construct: expressed in transfected cells
Sequence (Q969F8 whole entry L364H): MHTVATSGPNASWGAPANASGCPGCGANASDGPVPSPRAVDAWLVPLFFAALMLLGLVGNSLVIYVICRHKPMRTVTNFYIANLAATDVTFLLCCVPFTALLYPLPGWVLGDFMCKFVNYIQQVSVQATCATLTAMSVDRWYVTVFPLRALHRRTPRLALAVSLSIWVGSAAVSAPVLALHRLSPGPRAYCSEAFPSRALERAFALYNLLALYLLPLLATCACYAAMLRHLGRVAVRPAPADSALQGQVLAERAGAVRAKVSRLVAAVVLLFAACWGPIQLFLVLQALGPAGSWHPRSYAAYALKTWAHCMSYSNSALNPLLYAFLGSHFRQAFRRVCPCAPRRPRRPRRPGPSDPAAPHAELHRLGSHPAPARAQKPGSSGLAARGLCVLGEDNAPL
Format: cell-based
Settings: hOT7T175/CHO, FLIPR, evaluation for 40 seconds after initiation of the reaction
Starred links: 1 amine or outer side, 2 acyl side, 3 side chain; linkers in the order of their positions; H or OH if unused. Non-standard residues stand in square brackets, D forms with d. Tyr(Me) = COc1ccc(C[C@H](N[*:1])C(=O)[*:2])cc1; Arg(Me) = CNC(=N)NCCC[C@H](N)C(=O)O; azaGly = NNC(=O)O
Returns one of rule met or rule not met; rule met when Specific Act. (EC50/MS10 EC50) is >= 2.

Test whether the substance Ac-D-Tyr-D-Trp-Asn-Thr-Tyr(Me)-AzaGly-Leu-Arg(Me)-Trp-NH2 (Ac-[dY][dW]NT[Tyr(Me)][azaGly]L[Arg(Me)]W-NH2; SMILES CNC(=N)NCCC[C@H](NC(=O)[C@H](CC(C)C)NC(=O)NNC(=O)[C@H](Cc1ccc(OC)cc1)NC(=O)[C@@H](NC(=O)[C@H](CC(N)=O)NC(=O)[C@@H](Cc1c[nH]c2ccccc12)NC(=O)[C@@H](Cc1ccc(O)cc1)NC(C)=O)[C@@H](C)O)C(=O)N[C@@H](Cc1c[nH]c2ccccc12)C(N)=O) [Compound No. 693] records Specific Act. (EC50/MS10 EC50) of 2 or higher.
rule not met

Test whether the substance Ac-D-Tyr-D-Pya(3)-Asn-Thr-Phe-AzaGly-Leu-Arg(Me)-Trp-NH2 [Compound No. 660] records Specific Act. (EC50/MS10 EC50) of 2 or higher.
rule not met

Test whether the substance Phenylacetyl-Asn-Ser-Phe-AzaGly-Leu-Arg(Me)-Trp-NH2 [Compound No. 519] records Specific Act. (EC50/MS10 EC50) of 2 or higher.
rule met

Test whether the substance D-Tyr-Pya(4)-Ala-Ser-Phe-AzaGly-Leu-Arg(Me)-Trp-NH2 [Compound No. 502] records Specific Act. (EC50/MS10 EC50) of 2 or higher.
rule not met

Test whether the substance D-Arg-Acp-D-Tyr-D-Trp-Abu-Ser-Phe-AzaGly-Leu-Arg(Me)-Trp-NH2 [Compound No. 561] records Specific Act. (EC50/MS10 EC50) of 2 or higher.
rule not met

Test whether the substance Glycoloyl-D-Trp-Asn-Thr-Phe-AzaGly-Leu-Arg(Me)-Trp-NH2 (Glycoloyl-[dW]NTF[azaGly]L[Arg(Me)]W-NH2) [Compound No. 680] records Specific Act. (EC50/MS10 EC50) of 2 or higher.
rule met

Test whether the substance H-YNWNSFGLRY-NH2 [Compound No. 109] records Specific Act. (EC50/MS10 EC50) of 2 or higher.
rule met

Test whether the substance D-Tyr-D-Pya(4)-Asn-Ser-Phe-AzaGly-Leu-Har-Trp-NH2 [Compound No. 481] records Specific Act. (EC50/MS10 EC50) of 2 or higher.
rule met

Test whether the substance Ac-D-Tyr-D-Trp-Asn-Thr-Phe-AzaGly-Ile-Arg(Me)-Trp-NH2 (Ac-[dY][dW]NTF[azaGly]I[Arg(Me)]W-NH2; SMILES CC[C@H](C)[C@H](NC(=O)NNC(=O)[C@H](Cc1ccccc1)NC(=O)[C@@H](NC(=O)[C@H](CC(N)=O)NC(=O)[C@@H](Cc1c[nH]c2ccccc12)NC(=O)[C@@H](Cc1ccc(O)cc1)NC(C)=O)[C@@H](C)O)C(=O)N[C@@H](CCCNC(=N)NC)C(=O)N[C@@H](Cc1c[nH]c2ccccc12)C(N)=O) [Compound No. 678] records Specific Act. (EC50/MS10 EC50) of 2 or higher.
rule not met

Test whether the substance D-Tyr-D-Pya(4)-Asn-Ser-Phe-AzaGly-Leu-Har-Phe-NH2 [Compound No. 488] records Specific Act. (EC50/MS10 EC50) of 2 or higher.
rule met

Test whether the substance D-Tyr-D-Pya(4)-Ala-Ser-Phe-AzaGly-Leu-Arg(Me)-Trp-NH2 [Compound No. 492] records Specific Act. (EC50/MS10 EC50) of 2 or higher.
rule not met
